Hey, just so you know, these numbers are from patent US11505533B2.

# ASSAY_METHOD_TEXT: Microsomal stability + NADPH
# EXPERIMENTAL_PARAMETERS: mouse liver microsomes, 0.5 hr at 37° C.
Entries whose Microsomal Stability + NADPH % degraded is below 30% take 1.0; entries at or above 30% take 0.0.

Reference set (6 entries):
O=C(Nc1nnc(-c2ccc(F)cc2)o1)c1ccc(Oc2cccc(O)c2)cc1 [compound 4304] ... 0.0
Cc1ccc(Oc2ccc(C(=O)Nc3nnc(-c4ccc(F)cc4)o3)cc2)cc1 [compound 4305] ... 1.0
O=C(Nc1nnc(-c2ccc(F)cc2)o1)N1CCc2ccc(F)cc2C1 [compound 4332] ... 1.0
O=C(Nc1nnc(C2CCCC2)o1)c1ccc(Oc2ccccc2)nc1 [compound 4470] ... 1.0
COc1ccc(Oc2ccc(C(=O)Nc3nnc(-c4ccc(F)cc4)o3)cc2)cc1 [compound 4310] ... 1.0
COc1cccc(Oc2ccc(C(=O)Nc3nnc(-c4ccc(F)cc4)o3)cc2)c1 [compound 4309] ... 1.0

Query string: Say whether its Microsomal Stability + NADPH % degraded is strictly beneath 30%. Entry: O=C(Nc1nnc(-c2ccc(F)cc2)o1)N1CC=C(C(F)(F)F)CC1 [compound 4347]
Result string: 1.0

Query string: Problem: For the molecule O=C(Nc1nnc(-c2ccc(F)cc2)o1)N1Cc2ccccc2C1 [compound 4330] , is Microsomal Stability + NADPH % degraded under 30%?
Result string: 0.0

Query string: Determine if Cc1cccc(Oc2ccc(C(=O)Nc3nnc(-c4ccc(F)cc4)o3)cc2)c1 [compound 4306] shows Microsomal Stability + NADPH % degraded strictly lower than 30%.
Result string: 1.0

Query string: Quick check: Microsomal Stability + NADPH % degraded of CC1=CCN(C(=O)Nc2nnc(-c3ccc(F)cc3)o2)CC1 [compound 4366] under 30%?
Result string: 0.0

Query string: # strict comparison: is reported Microsomal Stability + NADPH % degraded < 30%? input = Cc1cccc(-c2nnc(NC(=O)c3ccc(Oc4ccccc4)nc3)o2)c1 [compound 4499]
Result string: 1.0

----------
solubility overview
# ASSAY_METHOD_TEXT: Aqueous solubility, nephelometry
# EXPERIMENTAL_PARAMETERS: water, kinetic from dmso stock
The figure you give is taken to be in µM; do not add the unit.

// below: answered molecules
CC1=CCN(C(=O)Nc2nnc(-c3ccc(F)cc3)o2)CC1 ... 25
O=C(Nc1nnc(-c2ccc(F)cc2)o1)c1ccc(OC2CCCC2)cc1 ... 3.12
O=C(Nc1nnc(-c2ccc(F)cc2)o1)N1CCc2ccc(F)cc2C1 ... 3.13
O=C(Nc1nnc(C2CCCC2)o1)c1ccc(Oc2ccccc2)nc1 ... 100

Query string: For the molecule CC(Oc1ccc(C(=O)Nc2nnc(-c3ccc(F)cc3)o2)cc1)c1ccccc1 (centres unmarked) , report solubility.
Result string: 3.1

----------
A collection of molecules and their measured Serum Stability (% remain)
# ASSAY_METHOD_TEXT: Mouse serum stability
# EXPERIMENTAL_PARAMETERS: 5 μM, 37° C., 4 h
Answer with a number only, understood to be in %.

Here's what some known entries look like.
CC1=CCN(C(=O)Nc2nnc(-c3ccc(F)cc3)o2)CC1 [compound 4366] ... 95
O=C(Nc1nnc(-c2ccc(F)cc2)o1)N1CCC2(CCC2)CC1 [compound 4842] ... 77

// below: Serum Stability (% remain) requested for another molecule
Query string: Answer with the recorded Serum Stability (% remain) of O=C(Nc1nnc(-c2ccc(F)cc2)o1)c1ccc(OC2CCCC2)cc1 [compound 4293] only.
Result string: 88
